From: patent US11566007B2

# Study target: KRAS WT (Homo sapiens (Human), UniProt P01116+P62937)
# Sequence (P01116-2 other isoform, or with tags, fused parts or gaps): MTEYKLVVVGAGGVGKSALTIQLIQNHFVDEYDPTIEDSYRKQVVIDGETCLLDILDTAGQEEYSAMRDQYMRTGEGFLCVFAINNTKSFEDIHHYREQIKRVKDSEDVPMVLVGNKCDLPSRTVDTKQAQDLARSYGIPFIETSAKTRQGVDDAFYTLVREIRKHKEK
# Sequence (P62937 whole entry): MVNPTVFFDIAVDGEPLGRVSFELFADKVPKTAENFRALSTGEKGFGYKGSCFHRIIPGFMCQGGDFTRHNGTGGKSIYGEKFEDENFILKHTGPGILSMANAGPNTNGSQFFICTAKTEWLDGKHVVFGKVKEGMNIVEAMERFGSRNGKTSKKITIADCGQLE
# Protocol details: Ras-Raf (BRAF RBD) disruption / FRET / MOA assay, KRAS WT
# Type: biochemical
# Condition context: read-out: IC50* KRAS WT FRET data
Please go through the items and note down their IC50.

Consider the worked cases shown below.
Compound	Result
C=CC(=O)Nc1ncc(C(=O)N(C)[C@H](C(=O)N[C@H]2Cc3cccc(c3)-c3ccc4c(c3)c(c(-c3cccnc3[C@H](C)OC)n4CC)CC(C)(C)COC(=O)[C@@H]3CCCN(N3)C2=O)C(C)C)n1C (atropisomer, axis not shown)	1000 to 10000 nM
C=CC(=O)N1C[C@@H](C)N(C(=O)N(C)[C@H](C(=O)N[C@H]2Cc3nc(cs3)-c3ccc4c(c3)c(c(-c3cccnc3[C@H](C)OC)n4CC)CC(C)(C)COC(=O)[C@@H]3CCCN(N3)C2=O)C(C)C)C[C@@H]1C (atropisomer, axis not shown)	10 to 100 nM
C=CC(=O)N1CCC2(CCN(C(=O)N(C)[C@H](C(=O)N[C@H]3Cc4cccc(c4)-c4ccc5c(c4)c(c(-c4cccnc4[C@H](C)OC)n5CC)CC(C)(C)COC(=O)[C@@H]4CCCN(N4)C3=O)C(C)C)CC2)C1 (atropisomer, axis not shown)	100 to 1000 nM
C=CC(=O)N1CC[C@H](C(=O)N(C)[C@H](C(=O)N[C@H]2Cc3cc(cc(C(F)F)c3)-c3ccc4c(c3)c(c(-c3cccnc3[C@H](C)OC)n4CC)CC(C)(C)COC(=O)[C@@H]3CCCN(N3)C2=O)C(C)C)C1 (atropisomer, axis not shown)	1000 to 10000 nM

Fill in IC50 for each of the 3 compounds listed.
1. C=CC(=O)Nc1ccc(C(=O)N(C)[C@H](C(=O)N[C@H]2Cc3cc(O)cc(c3)-c3ccc4c(c3)c(c(-c3cccnc3[C@H](C)OC)n4CC)CC(C)(C)COC(=O)[C@@H]3CCCN(N3)C2=O)C(C)C)nc1 (atropisomer, axis not shown)
2. CCn1c(-c2cccnc2[C@H](C)OC)c2c3cc(ccc31)-c1cc(CF)cc(c1)C[C@H](NC(=O)[C@@H](COC1CN(C(=O)C#CC(C)(C)N(C)C)C1)C(C)C)C(=O)N1CCC[C@H](N1)C(=O)OCC(C)(C)C2 (atropisomer, axis not shown)
3. CCn1c(-c2cccnc2[C@H](C)OC)c2c3cc(ccc31)-c1cc(O)cc(c1)C[C@H](NC(=O)[C@H](C(C)C)N(C)C(=O)N1CCN(C(=O)/C=C/CN(C)C)CC1)C(=O)N1CCC[C@H](N1)C(=O)OCC(C)(C)C2 (atropisomer, axis not shown)

## Output
100 to 1000 nM
> 10000 nM
10 to 100 nM
